Assay: Intrinsic clearance in human liver microsomes
Assay type: in vitro ADME

Chemical Structure: Cc1csc(N(C)C(=O)CSc2ccc(-c3ccccc3)nn2)n1
CLint scaled (mL/min/kg): 229

Recorded values, source paper PMC3389279.
